# TARGET_UNDER_TEST: isolated recombinant JAK1 kinase domain (Homo sapiens)
# Construct: The activity of the isolated recombinant JAK1 and JAK2 kinase domain was measured
# Sequence (P23458 875-1153 limits assumed): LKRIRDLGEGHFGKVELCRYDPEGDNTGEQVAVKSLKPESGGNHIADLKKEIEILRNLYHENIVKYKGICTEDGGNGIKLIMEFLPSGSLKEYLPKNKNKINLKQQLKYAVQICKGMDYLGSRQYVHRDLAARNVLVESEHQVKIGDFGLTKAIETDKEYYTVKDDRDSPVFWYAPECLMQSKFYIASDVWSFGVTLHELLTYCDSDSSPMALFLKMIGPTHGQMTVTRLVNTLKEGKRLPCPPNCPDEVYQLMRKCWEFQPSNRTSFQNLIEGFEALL
# RUN_DESCRIPTION: JAK1 enzyme assay (Caliper LabChip, Ki)
# Assay type: biochemical
# APPLIED_CONDITIONS: recombinant JAK1 kinase domain, 25 μM ATP
READOUT_NAME: Ki (nM)

# input With isolated recombinant JAK1 kinase domain (Homo sapiens) as the test system, provide measured Ki for this molecule: CSc1ccc(OC(F)F)c(-c2nn(CC(=O)N3CCC(N4CCS(=O)(=O)CC4)CC3)cc2NC(=O)c2cnn3cccnc23)c1
# output 0.27

# input // fetch Ki; item: CSc1ccc(OC(F)F)c(-c2nn(CC(=O)N3CCC(N4CCSCC4)CC3)cc2NC(=O)c2cnn3cccnc23)c1 ; system: isolated recombinant JAK1 kinase domain (Homo sapiens)
# output 0.23

# input Tell me its Ki on isolated recombinant JAK1 kinase domain (Homo sapiens): CSc1ccc(OC(F)F)c(-c2nn(CC(=O)N3CCC(N(C)CCCC#N)CC3)cc2NC(=O)c2cnn3cccnc23)c1
# output 0.27

---

# TARGET_UNDER_TEST: isolated recombinant JAK1 kinase domain (Homo sapiens)
# Construct: The activity of the isolated recombinant JAK1 and JAK2 kinase domain was measured
# RUN_DESCRIPTION: JAK1 enzyme assay (Caliper LabChip, Ki)
# Type: biochemical
# APPLIED_CONDITIONS: recombinant JAK1 kinase domain, 25 μM ATP
READOUT_NAME: Ki (nM)

# input Please indicate Ki recorded for CSc1ccc(OC(F)F)c(-c2nn(CC(=O)N3CCC(N(C)CCC#N)CC3)cc2NC(=O)c2cnn3cccnc23)c1
# output 0.28

1. CSc1ccc(OC(F)F)c(-c2nn(CC(=O)N3CCN(C4CCSCC4)CC3)cc2NC(=O)c2cnn3cccnc23)c1
2. CSc1ccc(OC(F)F)c(-c2nn(CC(=O)N3CCC(CN4CCN(CC(=O)N(C)C)CC4)CC3)cc2NC(=O)c2cnn3cccnc23)c1
# input Dear colleague, could you let me know whether 1 or 2 has the lower recorded Ki? Thanks. Identify your selection by its label.
# output 1

---

# TARGET_UNDER_TEST: isolated recombinant JAK1 kinase domain (Homo sapiens)
# Construct: The activity of the isolated recombinant JAK1 and JAK2 kinase domain was measured
# RUN_DESCRIPTION: JAK1 enzyme assay (Caliper LabChip, Ki)
# Format: biochemical
# APPLIED_CONDITIONS: recombinant JAK1 kinase domain, 25 μM ATP
READOUT_NAME: Ki (pM)

# input Recall and state the measured Ki for CSc1ccc(OC(F)F)c(-c2nn(CCN[C@H]3CCOC3)cc2NC(=O)c2cnn3cccnc23)c1 [Example 10] .
# output 490

# input For the compound O=C(Nc1cn(CC(=O)N2CCC(N3CCOCC3)CC2)nc1-c1cc(SC2CC2)ccc1OC(F)F)c1cnn2cccnc12 [Example 161] , report Ki.
# output 300

# input Please give the documented Ki of CSc1ccc(OC(F)F)c(-c2nn(CC(=O)N3CCC(N4CCNC(=O)C4)CC3)cc2NC(=O)c2cnn3cccnc23)c1 [Example 15]
# output 280

a. CSc1ccc(OC(F)F)c(-c2nn(CC(=O)N3CCC(CN4CCN(CC(=O)N(C)C)C[C@@H]4C)CC3)cc2NC(=O)c2cnn3cccnc23)c1 [Example 94]
b. CSc1ccc(OC(F)F)c(-c2nn(CC(=O)N3CCC(N(C)CC(C)C#N)CC3)cc2NC(=O)c2cnn3cccnc23)c1 (stereo not shown) [Example 29]
c. CSc1ccc(OC(F)F)c(-c2n[nH]cc2NC(=O)c2cnn3cccnc23)c1 [Example 1]
# input Rank by Ki (largest to smallest). # the answer lists labels in the order requested
# output a, b, c
(a: 460 pM, b: 260 pM, c: 79 pM)
